# Tested on: Colletotrichum gloeosporioides
# runDescription: Antifungal activity against Glomerella cingulata on potato sucrose agar medium at 28 or 20 degC for 2 or 3 days
# Format: functional
readout: MIC (µg/mL)
Give the quantity in µg/mL, number only.

// worked examples, MIC included
smi: CC(C)[C@H]1CC[C@@H](Cc2ccc(Cl)cc2)[C@]1(O)Cn1cncn1
testedTarget: Colletotrichum gloeosporioides
readout: MIC
unitAbbrev: µg/mL
observedMeasurement: 25
//
smi: CC(C)[C@@H]1CC[C@H](Cc2ccc(Cl)cc2)[C@@]1(O)Cn1cncn1
testedTarget: Colletotrichum gloeosporioides
readout: MIC
unitAbbrev: µg/mL
observedMeasurement: 1.6
//
smi: CCC[C@@H]1CC[C@H](Cc2ccc(Cl)cc2)[C@@]1(O)Cn1cncn1
testedTarget: Colletotrichum gloeosporioides
readout: MIC
unitAbbrev: µg/mL
observedMeasurement: 3.1
//
smi: C[C@@H]1CC[C@H](Cc2ccc(Cl)cc2)[C@@]1(O)Cn1cncn1
testedTarget: Colletotrichum gloeosporioides
readout: MIC
unitAbbrev: µg/mL
observedMeasurement: 13

Consider the additional compound presented here.
So for `CC[C@@H]1CC[C@@H](Cc2ccc(Cl)cc2)[C@]1(O)Cn1cncn1` , the logged MIC turned out to be 13

----------
# Tested on: Monilinia fructicola
# runDescription: Antifungal activity against Monilinia fructicola on potato sucrose agar medium at 28 or 20 degC for 2 or 3 days
# Assay type: functional
// reported MIC for each item listed
Response body: numeric value in µg/mL, unit text excluded.

smi: CCC[C@H]1CC[C@@H](Cc2ccc(Cl)cc2)[C@]1(O)Cn1cncn1
testedTarget: Monilinia fructicola
unitAbbrev: µg/mL
MIC: 13

Param item: `C[C@H]1CC[C@@H](Cc2ccc(Cl)cc2)[C@]1(O)Cn1cncn1` ; param system: Monilinia fructicola; output MIC: 13

----------
# System: Rhizoctonia solani
# runDescription: Antifungal activity against Rhizoctonia solani on potato sucrose agar medium at 28 or 20 degC for 2 or 3 days
# Assay type: functional
Measured MIC of individual entries
State the answer as a number, implicitly in µg/mL.

smi: CC[C@H]1CC[C@@H](Cc2ccc(Cl)cc2)[C@]1(O)Cn1cncn1
MIC (µg/mL): 100

// sample `CC[C@H]1CC[C@H](Cc2ccc(Cl)cc2)[C@@]1(O)Cn1cncn1` , its MIC was 50

Documented MIC of `CCC[C@@H]1CC[C@H](Cc2ccc(Cl)cc2)[C@@]1(O)Cn1cncn1` : 100

Recorded MIC (molecule `CC[C@@H]1CC[C@H](Cc2ccc(Cl)cc2)[C@@]1(O)Cn1cncn1` ): 100

----------
Reported MIC values for the following compounds.
# Tested on: Cercospora beticola
# runDescription: Antifungal activity against Cercospora beticola on potato sucrose agar medium at 28 or 20 degC for 2 or 3 days
# Type: functional

Example compounds with recorded MIC:
smi: CC[C@H]1CC[C@H](Cc2ccc(Cl)cc2)[C@@]1(O)Cn1cncn1
readout: MIC
observedMeasurement: 1.6 µg/mL

smi: O[C@]1(Cn2cncn2)CCC[C@@H]1Cc1ccc(Cl)cc1
readout: MIC
observedMeasurement: > 100 µg/mL

smi: CC(C)C[C@H]1CC[C@@H](Cc2ccc(Cl)cc2)[C@]1(O)Cn1cncn1
readout: MIC
observedMeasurement: > 100 µg/mL

smi: CCC[C@@H]1CC[C@H](Cc2ccc(Cl)cc2)[C@@]1(O)Cn1cncn1
readout: MIC
observedMeasurement: 100 µg/mL

smi: C[C@@H]1CC[C@H](Cc2ccc(Cl)cc2)[C@@]1(O)Cn1cncn1
readout: MIC
observedMeasurement: > 100 µg/mL

smi: CC(C)[C@@H]1CC[C@@H](Cc2ccc(Cl)cc2)[C@]1(O)Cn1cncn1
readout: MIC
observedMeasurement: > 100 µg/mL

smi: C[C@H]1CC[C@@H](Cc2ccc(Cl)cc2)[C@]1(O)Cn1cncn1
readout: MIC
observedMeasurement: > 100 µg/mL

smi: CC(C)[C@H]1CC[C@@H](Cc2ccc(Cl)cc2)[C@]1(O)Cn1cncn1
readout: MIC
observedMeasurement: > 100 µg/mL

Reported MIC for `CC(C)[C@H]1CC[C@H](Cc2ccc(Cl)cc2)[C@@]1(O)Cn1cncn1` was 13 µg/mL

Noted for `CC[C@H]1CC[C@@H](Cc2ccc(Cl)cc2)[C@]1(O)Cn1cncn1` : its MIC reads > 100 µg/mL

FYI, the data here is from ChEMBL document CHEMBL3045771.
